Here the recorded MIC S. pneumo. 1095 is given for each entry.
System: Streptococcus pneumoniae 1095
Format: cell-based
Conditions: S. pneumoniae 1095 (ermB); microtiter broth dilution
Provide the reading as a plain figure in mg/L.

>>> quantitativereadout("CCC1OC(=O)C(C)C(=O)C(C)C(OC2OC(C)CC(N(C)C)C2O)C(C)(OC)CC(C)C(=O)C(C)C2N(CC3CCN(C(=O)c4cc5cccnc5[nH]4)C3)C(=O)OC12C (centres unmarked)")
2

Kindly consider the entry below.
Please report the recorded MIC S. pneumo. 1095 for CCC1OC(=O)C(C)C(=O)C(C)C(OC2OC(C)CC(N(C)C)C2O)C(C)(OC)CC(C)C(=O)C(C)C2N(CC3CCN(Cc4ccc5cccc(O)c5n4)C3)C(=O)OC12C (centres unmarked) .
1

###

Tested on: Streptococcus pneumoniae 1175
Assay type: cell-based
Conditions: Streptococcus pneumoniae 1175; microtiter broth dilution
Here the recorded MIC S. pneumo. 1175 is given for each entry.
Provide the reading as a plain figure in µg/mL.

>>> quantitativereadout("CCC1OC(=O)C(C)C(=O)C(C)C(OC2OC(C)CC(N(C)C)C2O)C(C)(OC)CC(C)C(=O)C(C)C2N(CC3CN(Cc4cccc5nccnc45)C3)C(=O)OC12C (stereo not drawn)")
0.12
>>> quantitativereadout("CC[C@H]1OC(=O)[C@H](C)C(=O)[C@H](C)[C@@H](O[C@@H]2O[C@H](C)C[C@H](N(C)C)[C@H]2O)[C@](C)(OC)C[C@@H](C)C(=O)[C@H](C)[C@H]2N(CC3(C)CN(Cc4cnc5ccccc5n4)C3)C(=O)O[C@]12C")
0.5

Kindly consider the entry below.
Please report the recorded MIC S. pneumo. 1175 for CCC1OC(=O)C(C)C(=O)C(C)C(OC2OC(C)CC(N(C)C)C2O)C(C)(OC)CC(C)C(=O)C(C)C2N(CC3CN(Cc4cn5cccnc5n4)C3)C(=O)OC12C (stereo not drawn) .
4

###

System: Streptococcus pneumoniae 1175
Format: cell-based
Conditions: Streptococcus pneumoniae 1175; microtiter broth dilution
measuredQuantity: MIC S. pneumo. 1175 (µg/mL)
Provide the reading as a plain figure in µg/mL.

Study these solved cases before continuing.
>>> quantitativereadout("CCC1OC(=O)C(C)C(=O)C(C)C(OC2OC(C)CC(N(C)C)C2O)C(C)(OC)CC(C)C(=O)C(C)C2N(C3CN(S(=O)(=O)c4cccc(-c5nnc(C)o5)c4)C3)C(=O)OC12C (stereo not shown)")
0.12
>>> quantitativereadout("CCC1OC(=O)C(C)C(=O)C(C)C(OC2OC(C)CC(N(C)C)C2O)C(C)(OC)CC(C)C(=O)C(C)C2N(C3CN(Cc4ccc5nccnc5c4)C3)C(=O)OC12C (stereo not shown)")
4
>>> quantitativereadout("CCC1OC(=O)C(C)C(=O)C(C)C(OC2OC(C)CC(N(C)C)C2O)C(C)(OC)CC(C)C(=O)C(C)C2N(CC3CN(Cc4n[nH]c5cc(Cl)ccc45)C3)C(=O)OC12C (stereo not shown)")
0.12
>>> quantitativereadout("CC[C@H]1OC(=O)[C@H](C)C(=O)[C@H](C)[C@@H](O[C@@H]2O[C@H](C)C[C@H](N(C)C)[C@H]2O)[C@](C)(OC)C[C@@H](C)C(=O)[C@H](C)[C@H]2N(CC3(C)CN(Cc4ccc5nccnc5c4)C3)C(=O)O[C@]12C")
0.25
>>> quantitativereadout("CCC1OC(=O)C(C)C(=O)C(C)C(OC2OC(C)CC(N(C)C)C2O)C(C)(OC)CC(C)C(=O)C(C)C2N(C3CN(Cc4ccnc5ccccc45)C3)C(=O)OC12C (stereo not shown)")
0.25

Please report the recorded MIC S. pneumo. 1175 for CCC1OC(=O)C(C)C(=O)C(C)C(OC2OC(C)CC(N(C)C)C2O)C(C)(OC)CC(C)C(=O)C(C)C2N(C3CN(C(=O)c4ccc(-c5noc(C)n5)cc4)C3)C(=O)OC12C (stereo not shown) .
0.25

Could you do the same for CCC1OC(=O)C(C)C(=O)C(C)C(OC2OC(C)CC(N(C)C)C2O)C(C)(OC)CC(C)C(=O)C(C)C2N(C3CN(C(C)c4ccnc5cccnc45)C3)C(=O)OC12C (stereo not shown) [Example 1.38] , please?
0.25

###

Here the recorded MIC H. influenzae 1218 is given for each entry.
Test system: Haemophilus influenzae 1218
Experiment: MIC, microtiter broth dilution (NCCLS M100-S14), H. influenzae 1218 (susceptible)
Type: cell-based
Conditions: Haemophilus influenzae 1218
Text: The assay described herein includes a panel of bacterial strains assembled to include a variety of target pathogenic species, including representatives of macrolide resistance mechanisms that have been characterized. In many cases, both the macrolide-susceptible parent strain and the macrolide-resistant strain derived from it are available to provide a more accurate assessment of the compound's ability to circumvent the resistance mechanism. […]
Provide the reading as a plain figure in µg/mL.

Study these solved cases before continuing.
>>> quantitativereadout("CCCC(c1ccnc2ccccc12)N1CC(N2C(=O)OC3(C)C(CC)OC(=O)C(C)C(=O)C(C)C(OC4OC(C)CC(N(C)C)C4O)C(C)(OC)CC(C)C(=O)C(C)C23)C1 (centres unmarked) [Example 1.65]")
1
>>> quantitativereadout("CCC1OC(=O)C(C)C(=O)C(C)C(OC2OC(C)CC(N(C)C)C2O)C(C)(OC)CC(C)C(=O)C(C)C2N(C3CN(S(=O)(=O)c4c(Cl)nc5sccn45)C3)C(=O)OC12C (centres unmarked) [Example 3.97]")
0.125
>>> quantitativereadout("CCOc1ccc2ccccc2c1CN1CC(N2C(=O)OC3(C)C(CC)OC(=O)C(C)C(=O)C(C)C(OC4OC(C)CC(N(C)C)C4O)C(C)(OC)CC(C)C(=O)C(C)C23)C1 (centres unmarked) [Example 1.97]")
0.5

Please report the recorded MIC H. influenzae 1218 for CCC1OC(=O)C(C)(F)C(=O)C(C)C(OC2OC(C)CC(N(C)C)C2O)C(C)(OC)CC(C)C(=O)C(C)C2N(C3CN(S(=O)(=O)c4cccc5nccnc45)C3)C(=O)OC12C (centres unmarked) [Example 3.98] .
0.25

Could you do the same for CCC1OC(=O)C(C)C(=O)C(C)C(OC2OC(C)CC(N(C)C)C2O)C(C)(OC)CC(C)C(=O)C(C)C2N(C3CN(S(=O)(=O)c4cccc5nsnc45)C3)C(=O)OC12C (centres unmarked) [Example 3.06] , please?
0.12

###

Tested on: Streptococcus pneumoniae 1175
Assay type: cell-based
Details: S. pneumoniae 1175 (mefA); microtiter broth dilution
Here the recorded MIC S. pneumo. 1175 is given for each entry.
# number then unit; no other words

Study these solved cases before continuing.
>>> result("CCC1OC(=O)C(C)C(=O)C(C)C(OC2OC(C)CC(N(C)C)C2O)C(C)(OC)CC(C)C(=O)C(C)C2N(CC3CCCN3C(=O)c3ccc4cccnc4c3)C(=O)OC12C.O=CO (stereo not drawn)")
"0.25 µg/mL"
>>> result("CC[C@H]1OC(=O)[C@H](C)C(=O)[C@H](C)[C@@H](O[C@@H]2O[C@H](C)C[C@H](N(C)C)[C@H]2O)[C@](C)(OC)C[C@@H](C)C(=O)[C@H](C)[C@H]2N(CC3(O)CN(Cc4ccno4)C3)C(=O)O[C@]12C")
"0.5 µg/mL"

Kindly consider the entry below.
Please report the recorded MIC S. pneumo. 1175 for CCC1OC(=O)C(C)C(=O)C(C)C(OC2OC(C)CC(N(C)C)C2O)C(C)(OC)CC(C)C(=O)C(C)C2N(CC3CCN(C(=O)c4cnc5ccccc5c4)C3)C(=O)OC12C (stereo not drawn) [13.10] .
0.25 µg/mL

###

System: Streptococcus pneumoniae 1175
Assay type: cell-based
Settings: Streptococcus pneumoniae 1175; microtiter broth dilution
measuredQuantity: MIC S. pneumo. 1175 (µg/mL)
Provide the reading as a plain figure in µg/mL.

>>> quantitativereadout("CCOc1cnc2ncccc2c1CN1CC(N2C(=O)OC3(C)C(CC)OC(=O)C(C)C(=O)C(C)C(OC4OC(C)CC(N(C)C)C4O)C(C)(OC)CC(C)C(=O)C(C)C23)C1 (centres unmarked)")
0.125

Kindly consider the entry below.
Please report the recorded MIC S. pneumo. 1175 for CC[C@H]1OC(=O)[C@H](C)C(=O)[C@H](C)[C@@H](O[C@@H]2O[C@H](C)C[C@H](N(C)C)[C@H]2O)[C@](C)(OC)C[C@@H](C)C(=O)[C@H](C)[C@H]2N(C3CN(C(C)c4ccnc5ccccc45)C3)C(=O)O[C@]12C (some centres unmarked) [Example 1.63] .
0.12

###

System: Streptococcus pneumoniae 1175
Assay type: cell-based
Conditions: S. pneumoniae 1175 (mefA); microtiter broth dilution
Here the recorded MIC S. pneumo. 1175 is given for each entry.
Provide the reading as a plain figure in µg/mL.

Study these solved cases before continuing.
>>> quantitativereadout("CC[C@H]1OC(=O)[C@H](C)C(=O)[C@H](C)[C@@H](O[C@@H]2O[C@H](C)C[C@H](N(C)C)[C@H]2O)[C@](C)(OC)C[C@@H](C)C(=O)[C@H](C)[C@H]2N(CC3(O)CN(C(=O)c4cccc5cccnc45)C3)C(=O)O[C@]12C")
1
>>> quantitativereadout("CCC1OC(=O)C(C)C(=O)C(C)C(OC2OC(C)CC(N(C)C)C2O)C(C)(OC)CC(C)C(=O)C(C)C2N(CC3CCCN3C(=O)c3cnc4ccccc4n3)C(=O)OC12C.O=CO (centres unmarked)")
0.12
>>> quantitativereadout("CCC1OC(=O)C(C)C(=O)C(C)C(OC2OC(C)CC(N(C)C)C2O)C(C)(OC)CC(C)C(=O)C(C)C2N(CC3CCN(Cc4c[nH]c5ncccc45)C3)C(=O)OC12C (centres unmarked) [Example 11.05]")
0.5
>>> quantitativereadout("CCC1OC(=O)C(C)C(=O)C(C)C(OC2OC(C)CC(N(C)C)C2O)C(C)(OC)CC(C)C(=O)C(C)C2N(CC3CCN(Cc4ccnc5ccccc45)C3)C(=O)OC12C (centres unmarked)")
0.12

Kindly consider the entry below.
Please report the recorded MIC S. pneumo. 1175 for CCC1OC(=O)C(C)C(=O)C(C)C(OC2OC(C)CC(N(C)C)C2O)C(C)(OC)CC(C)C(=O)C(C)C2N(CC3CCN(Cc4cnn(-c5cccnc5)c4)C3)C(=O)OC12C (centres unmarked) .
0.5
